Exercise: state measured self-splicing fitness (ln) for each of the sequences provided.
assay: self-splicing fitness, log relative to wild type (ln ratio); higher = more splicing; Tetrahymena group I intron in knt gene, E. coli kanamycin selection, DiMSum; sequences stand for … in CUCUCU…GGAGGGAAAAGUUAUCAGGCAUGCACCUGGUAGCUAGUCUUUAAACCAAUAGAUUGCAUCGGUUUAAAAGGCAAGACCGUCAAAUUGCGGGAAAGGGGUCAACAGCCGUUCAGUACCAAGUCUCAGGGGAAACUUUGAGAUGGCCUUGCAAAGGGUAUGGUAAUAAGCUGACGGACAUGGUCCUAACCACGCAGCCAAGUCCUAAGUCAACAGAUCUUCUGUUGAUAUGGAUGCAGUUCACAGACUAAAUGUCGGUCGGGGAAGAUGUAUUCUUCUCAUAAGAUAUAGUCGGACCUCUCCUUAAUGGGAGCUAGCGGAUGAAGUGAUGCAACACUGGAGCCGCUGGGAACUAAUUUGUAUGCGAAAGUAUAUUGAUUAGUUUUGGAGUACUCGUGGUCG; settings: 30 °C;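 also: selection with 25 µg/mL kanamycin versus none on LB agar overnight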
Form: value (number only, do not type unit).

What does the record list as self-splicing fitness (ln) for UUGAAGCAAUAUUACGGACC ? -1.12

Field entry: GGGGAGCAAUAUUACGACGG -3.76

# repeat for CAGGAGCAAUAUUACGCAGC -2.14

Follow-up entry: GCUAAGCAAUAUUACGCUUC -2.89

Consider next the sequence UCGCAGCAAUAUUACGUGGU in the same way. -3.38

src = the supplement of paper PMC7877785
